assay: SUPPLEMENTARY: Lyophilisation Solubility Assay (LYSA); format: physicochemical; conditions: read-out: Kinetic_solubility
Can you tell me solubility kinetic for the items I'm about to list?
Answers are plain numbers, in µg/mL.

Please review the entries below; each comes with its answer.
Data request: Fill in: solubility kinetic of O=C(COc1ccccc1)N1CCCC[C@@H]1c1noc(-c2cccc3[nH]cnc23)n1 is ___
Data returned: 30

Data request: Quick one: COc1ccc(Cl)cc1S(=O)(=O)N1COc2ccc(C(=O)Nc3ccn(CC(=O)O)n3)cc21
Data returned: 521

Your task in this section: give solubility kinetic for each listed record.
1. COc1ccc(Cl)cc1S(=O)(=O)N1COc2ccc(C(=O)Nc3ccc(CC(=O)O)cc3)cc21
2. COc1ccc(Cl)cc1S(=O)(=O)N1CCSc2ccc(C(=O)Nc3ccc(CC(=O)O)cc3)cc21
3. COc1ccc(Cl)cc1S(=O)(=O)N1COc2c(C)cc(C(=O)Nc3ccc(C(=O)O)cc3)cc21

Data returned:
[46, 232, 13]

Where these numbers come from: ChEMBL document CHEMBL3431459
